- Test system: DLD1 Human Colon Carcinoma
- ASSAY_NOTES: Human tumor xenograft test, DLD1
- Assay type: in vivo
- EXPERIMENTAL_CONTEXT: DLD1, 10 mg/kg IV, days 1, 5, 9, 13
- Procedure: The ability of compounds of this invention to inhibit tumor growth in animals is studied in the athymic mouse xenograft standard pharmacological test. Female nu/nu mice in an outbred albino background are obtained from Charles River Laboratories (Wilmington, Mass.). […] Tumor size is measured every 3-7 days with calipers in two orthogonal dimensions, and tumor volume is calculated from the formula volume=[(length×width^2)/2]. […]
PARAMETER: T/C on day 21

CNCCCOc1cc(F)c(-c2c(Cl)nc3ncnn3c2N[C@@H](C)C(F)(F)F)c(F)c1.Cl
0.72
CN(C)CCCOc1cc(F)c(-c2c(Cl)nc3ncnn3c2NCC(F)(F)F)c(F)c1.Cl
0.74
CNCCCOc1cc(F)c(-c2c(Cl)nc3ncnn3c2NCC(F)(F)F)c(F)c1.Cl
0.84
C[C@H](Nc1c(-c2c(F)cc(OCCCN(C)C)cc2F)c(Cl)nc2ncnn12)C(F)(F)F.Cl
0.58
